- experimental_system: T1, natriuretic peptide receptor-B (human)
- T1 chain: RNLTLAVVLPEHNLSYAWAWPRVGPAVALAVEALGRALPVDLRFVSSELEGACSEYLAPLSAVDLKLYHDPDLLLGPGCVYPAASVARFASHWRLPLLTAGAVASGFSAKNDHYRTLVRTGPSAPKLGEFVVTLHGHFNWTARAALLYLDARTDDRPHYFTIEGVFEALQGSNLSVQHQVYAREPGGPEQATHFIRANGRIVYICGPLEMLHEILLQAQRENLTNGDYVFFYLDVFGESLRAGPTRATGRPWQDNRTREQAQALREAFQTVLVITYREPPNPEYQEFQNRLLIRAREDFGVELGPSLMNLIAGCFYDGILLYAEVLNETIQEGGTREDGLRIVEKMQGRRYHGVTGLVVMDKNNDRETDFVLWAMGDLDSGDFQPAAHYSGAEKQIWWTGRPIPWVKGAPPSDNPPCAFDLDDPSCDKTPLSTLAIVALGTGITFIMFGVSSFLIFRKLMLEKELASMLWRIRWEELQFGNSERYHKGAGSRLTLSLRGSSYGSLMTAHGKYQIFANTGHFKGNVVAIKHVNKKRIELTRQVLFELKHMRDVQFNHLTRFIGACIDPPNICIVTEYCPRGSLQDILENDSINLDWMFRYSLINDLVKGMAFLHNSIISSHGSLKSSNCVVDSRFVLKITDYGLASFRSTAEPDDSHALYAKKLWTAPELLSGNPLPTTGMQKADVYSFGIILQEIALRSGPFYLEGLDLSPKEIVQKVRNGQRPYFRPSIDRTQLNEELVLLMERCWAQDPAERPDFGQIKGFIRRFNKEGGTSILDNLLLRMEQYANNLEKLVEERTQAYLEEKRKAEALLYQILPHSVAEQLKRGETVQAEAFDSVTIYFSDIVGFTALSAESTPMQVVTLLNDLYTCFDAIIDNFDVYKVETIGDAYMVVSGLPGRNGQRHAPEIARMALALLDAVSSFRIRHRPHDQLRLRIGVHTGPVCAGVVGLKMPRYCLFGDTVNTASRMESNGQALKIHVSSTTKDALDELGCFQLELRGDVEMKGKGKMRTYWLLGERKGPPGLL
- assay_details: cell-based or functional assay
Numbered stars: 1 amine (or outer) side, 2 acyl side, 3 side chain; on linkers, the order of the positions; unused ones are H or OH. Square brackets hold non-standard residues; d marks the D form. Ends that are not written are not given here. * marks the point of attachment. Tap(Ae) = (2S,4R)-4-(2-aminoethylamino)pyrrolidine-2-carboxylic acid, O=C([C@@H]1C[C@@H](NCCN[*:3])CN1[*:1])[*:2]; Dtp = (R)-2,2-dimethylthiazolidine-4-carboxylic acid, CC1(C)SC[C@@H](C(=O)[*:2])N1[*:1]; Pmy = (S)-para-methoxy-phenylalanine, COc1ccc(C[C@H](N[*:1])C(=O)[*:2])cc1; Sni = (S)-nipecotic acid, O=C([C@H]1CCCN([*:1])C1)[*:2]; Hyp = O=C(O)[C@@H]1C[C@@H](O)CN1; NMeL = CN[C@@H](CC(C)C)C(=O)O; d(αMeP) = C[C@]1(C(=O)O)CCCN1; AR‑201‑58 = not defined here; AR‑314‑87 = not defined here; Lauroyl = CCCCCCCCCCCC(=O)*; lys(Me2) = not defined here; dDab = NCC[C@@H](N)C(=O)O; Nphe = O=C(O)CNCc1ccccc1; Octanoyl = CCCCCCCC(=O)*; Nva = CCC[C@H](N)C(=O)O; Che = not defined here; leu = not defined here; Occ = octanoic acid
measure_name: EC50 group, cGMP in GTM-3 cells

Solved cases below.
Octanoyl-[dP]FGLKLDRI-NH2 [JAL-0694] :: ≤ 15 µM
Lauroyl-FLL[Hyp][NMeL]DRI-NH2 (not fully specified (some residues); printed as 832-Phe-leu-Leu-Hyp-Nml-Asp-Arg-Ile-NH2) [JAL-1245] :: ≤ 5 µM
[Occ][Sni]FLL[Tap(Ae)][NMeL]VR[Che] (not fully specified (residue 4); printed as Occ-Sni-Phe-leu-Leu-Tap(Ae)-Nml-Val-Arg-Che; reading uncertain) [JAL-1683] :: ≤ 15 µM
[Occ]AFGL[Dtp]LDRI-NH2 (not fully specified (residue 2); printed as Occ-ala-Phe-Gly-Leu-Dtp-Leu-Asp-Arg-Ile-NH2) [JAL-0979] :: ≤ 15 µM
Octanoyl-AFGLP[NMeL]DRI-NH2 (not fully specified (some residues); printed as Occ-ala-Phe-Gly-Leu-Pro-Nml-Asp-Arg-Ile-NH2) [JAL-0895] :: ≤ 5 µM

Form field: reported EC50 group, cGMP in GTM-3 cells of [Occ][dP]FGLP[NMeL]DRI-NH2 [JAL-0955_01]
≤ 5 µM

Form field: reported EC50 group, cGMP in GTM-3 cells of Octanoyl-AFGLKLDR[Che] (not fully specified (some residues); printed as Occ-ala-Phe-Gly-Leu-Lys-Leu-Asp-Arg-Che; reading uncertain) [JAL-0840]
≤ 15 µM

Form field: reported EC50 group, cGMP in GTM-3 cells of [Occ][Sni][Nphe][leu]L[Hyp][NMeL]DRI-NH2 (reading uncertain; also: printed as Occ-Sni-NPhe-leu-Leu-Hyp-Nml-Asp-Arg-Ile-NH2) [JAL-1634]
≤ 15 µM

Form field: reported EC50 group, cGMP in GTM-3 cells of [AR‑314‑87][leu]L[Hyp][NMeL]DRI-NH2 (reading uncertain; also: printed as (AR-314-87)-leu-Leu-Hyp-Nml-Asp-Arg-Ile-NH2) [JAL-1765-2]
≤ 1 µM

Form field: reported EC50 group, cGMP in GTM-3 cells of [AR‑201‑58]F[dL]L[Hyp][NMeL]DRI-NH2 (reading uncertain; also: printed as (AR-201-58)-Phe-leu-Leu-Hyp-Nml-Asp-Arg-Ile-NH2) [JAL-1373]
≤ 5 µM

Form field: reported EC50 group, cGMP in GTM-3 cells of [Occ][dA]FGL[d(αMeP)]LDRI-NH2 [JAL-0962]
≤ 15 µM

Form field: reported EC50 group, cGMP in GTM-3 cells of [Occ]AFGLPLVRI-NH2 (not fully specified (residue 2); printed as Occ-ala-Phe-Gly-Leu-Pro-Leu-Val-Arg-Ile-NH2) [JAL-0927]
≤ 15 µM

Form field: reported EC50 group, cGMP in GTM-3 cells of [Occ]AFGLPL[Nva]RI-NH2 (not fully specified (residue 2); printed as Occ-ala-Phe-Gly-Leu-Pro-Leu-Nva-Arg-Ile-NH2) [JAL-0926]
≤ 15 µM

Form field: reported EC50 group, cGMP in GTM-3 cells of Octanoyl-[Sni]F[dDab](Me2)L[Hyp][NMeL]DRI-NH2 [JAL-1785]
≤ 1 µM

Form field: reported EC50 group, cGMP in GTM-3 cells of Octanoyl-[Sni]F[lys(Me2)]L[Hyp][NMeL]VR[Che] (reading uncertain; also: printed as Occ-Sni-Phe-lys(Me2)-Leu-Hyp-Nml-Val-Arg-Che) [JAL-1779]
≤ 1 µM

Form field: reported EC50 group, cGMP in GTM-3 cells of Octanoyl-[Sni][Pmy][leu]L[Hyp][NMeL]DRI-NH2 (reading uncertain; also: printed as Occ-Sni-Pmy-leu-Leu-Hyp-Nml-Asp-Arg-Ile-) [JAL-1488]
≤ 5 µM

Form field: reported EC50 group, cGMP in GTM-3 cells of Lauroyl-FRL[Hyp]LDRI-NH2 (not fully specified (some residues); printed as 832-Phe-arg-Leu-Hyp-Leu-Asp-Arg-Ile-NH2) [JAL-1246]
≤ 15 µM
